procedure-summary: In vivo biodistribution in mice
Parameters: species or system normal CD-1 male mice
test-settings: iv, 60 min (1 hr) post injection
Each item that follows carries a reported Biodistribution: Blood.
Enter your answer as a number in % dose/g; do not include the unit.

Give the value of Biodistribution: Blood reported for the following: O=C([O-])CN(CCN(CC(=O)[O-])Cc1cc(CCC(=O)NC(P(=O)(O)O)P(=O)(O)O)ccc1[O-])Cc1cc(CCC(=O)NCCNC(=O)CN2CCN(CC(=O)O)CCN(CC(=O)O)CCN(CC(=O)O)CC2)ccc1[O-].[68Ga+3] [[^68Ga]1h] 0.11

----------
procedure-summary: In vivo biodistribution in mice
Set-up: species or system normal CD-1 male mice
test-settings: iv, 120 min post injection
Let's look at some molecules and their measured Biodistribution: Skin.
Express it in % dose/g; write the number only.

Look up and state reported Biodistribution: Skin for O=C([O-])CN(CCN(CC(=O)[O-])Cc1cc(CCC(=O)N[C@@H](CC(=O)O)C(=O)O)ccc1[O-])Cc1cc(CCC(=O)NC(P(=O)(O)O)P(=O)(O)O)ccc1[O-].[68Ga+3] [[^68Ga]1e] 0.12

Please supply the value of reported Biodistribution: Skin for the item O=C([O-])CN(CCN(CC(=O)[O-])Cc1cc(CCC(=O)NC(P(=O)(O)O)P(=O)(O)O)ccc1[O-])Cc1cc(CCC(=O)NCC(=O)O)ccc1[O-].[68Ga+3] [[^68Ga]1c] 0.31

State, in one line, measured Biodistribution: Skin of O=C([O-])CN(CCN(CC(=O)[O-])Cc1cc(CCC(=O)NC(P(=O)(O)O)P(=O)(O)O)ccc1[O-])Cc1cc(CCC(=O)O)ccc1[O-].[68Ga+3] [[^68Ga]1a] 0.13

// fetch Biodistribution: Skin given entry O=C([O-])CN(CCN(CC(=O)[O-])Cc1cc(CCC(=O)NC(P(=O)(O)O)P(=O)(O)O)ccc1[O-])Cc1cc(CCC(=O)NCCNC(=O)CN2CCN(CC(=O)O)CCN(CC(=O)O)CCN(CC(=O)O)CC2)ccc1[O-].[68Ga+3] [[^68Ga]1h] 0.07
